Test system: ammonia lateralization threshold
Assay: Panel evaluation of the lateralization threshold (LT) of ammonia alone and in combination with a PRM
Format: in vivo, panellists
Design: unit not given here
Conditions: Table 4; ammonia stimulus combined with PRM stimulus
Description: An ammonia stimulus test range was prepared. […] A stimulus was also prepared for each PRM which was intended to be combined with ammonia stimuli. […] If the rating created any sort of reasonable curve, the equation of the curve was determined and solved for 0 to arrive at the PRM assessment level. […] In the first circumstance, threshold values were then calculated by averaging the last four reversals. […] In the third circumstance, the LT could not be calculated. […]
PARAMETER: LT of ammonia Panellist 3 Cond II
One number for each entry.

Sample answers from the record:
| MOLECULE | MEASURED_ON | LT of ammonia Panellist 3 Cond II |
| --- | --- | --- |
| C=C1CCCC(C)(C)C1C(=O)OC (centres unmarked) | ammonia lateralization threshold | 6.3 |
| C[C@@H]1CC[C@H]2[C@H](C)C(=O)O[C@@H]2C1 | ammonia lateralization threshold | 11.1 |
| CCCCC(CC)CCC(C)O (centres unmarked) | ammonia lateralization threshold | 6.3 |
| CCC(=O)OCC(C)(C)O[C@@H](C)[C@@H]1CCCC(C)(C)C1 [Helvetolide ®] | ammonia lateralization threshold | 2.0 |

Please report the measured LT of ammonia Panellist 3 Cond II for CCC1CC(C)(C)CCC1=O (centres unmarked) tested on ammonia lateralization threshold. 2.0
